Experiment: Plasma concentrations and TK parameters, 72-hour continuous intravenous infusion
Type: in vivo, Sprague-Dawley rats
Settings: female, Sprague-Dawley, rat, plasma, iv, 10 mg/kg/day, female Sprague-Dawley rats; 72-hour intravenous infusion at 10 mg/kg/day; time 84 h; read-out: Plasma concentration, Mean
Measure: concentration at 84 h (ng/mL)
Form entry: value (ng/mL) — number only.

Per the record, O=C(O)c1cc(-c2ccc(C3CCNCC3)cc2)c2ccc(-c3ccc(C(F)(F)F)cc3)cc2c1 has concentration at 84 h of 80.9

====

Experiment: Plasma concentrations during 24-hour continuous intravenous infusion
Type: in vivo, Sprague-Dawley rats
Settings: female, Sprague-Dawley, rat, plasma, iv, 10 mg/kg, female Sprague-Dawley rats; 24-hour intravenous infusion at 10 mg/kg; time 8 h; read-out: Plasma concentration, Mean
Measure: concentration at 8 h (ng/mL)
Form entry: value (ng/mL) — number only.

Per the record, O=C(O)c1cc(-c2ccc(C3CCNCC3)cc2)c2ccc(-c3ccc(C(F)(F)F)cc3)cc2c1 [KB-1801] has concentration at 8 h of 526

====

Experiment: Plasma concentrations and TK parameters, 72-hour continuous intravenous infusion
Assay type: in vivo, Sprague-Dawley rats
Conditions: female, Sprague-Dawley, rat, plasma, iv, 30 mg/kg/day, female Sprague-Dawley rats; 72-hour intravenous infusion at 30 mg/kg/day; time 96 h; read-out: Plasma concentration, individual animal
Measure: concentration at 96 h
Answer with the value and then the unit.

Per the record, O=C(O)c1cc(-c2ccc(C3CCNCC3)cc2)c2ccc(-c3ccc(C(F)(F)F)cc3)cc2c1 has concentration at 96 h of 81.6 ng/mL
